Exercise: for every item that follows, state its recorded growth.
Tested on: HS 578T breast
protocol.details: NCI-60 one-dose screen, 48 h (100 = growth as untreated, 0 = no growth, -100 = all killed)
condition.info: 10 µM unless noted
Description: Growth inhibition of the HS 578T human tumor cell line is measured as a screen for anti-cancer activity. Cells are grown in 96 well plates and exposed to the test compound for 48 hours. Compounds are tested at a single concentration, which is 10^-5 M for most compounds. The reported endpoint is percent growth (GI% or GIPRCNT), where numbers from 0 - 100% represent growth inhibition, and numbers from -100% - 0 represent cell death. For example, a value of 40 represents 60% growth inhibition. […]
The panel holds about 83,000 compounds, 20% with a hit somewhere; the sample as a whole holds those more often. Activity calls are given as the source filed them. Rule for the calls: active = growth percent below 10; inactive = the rest.

Lab book: growth of CC(=O)Nc1nc2c(s1)CCc1c-2cn(S(=O)(=O)c2ccccc2)c1-c1ccccc1 noted as 91.3% (inactive)

Lab book: growth of CN1CCN(Cc2ccc(NC(=O)c3[nH]ncc3Nc3cc(OC4CCCC4)ncn3)cc2)CC1 noted as 32.8% (inactive)

Lab book: growth of CN1C(=O)N(C)C2(c3ccccc3)OC(=S)NC12c1ccccc1 (stereo not given) noted as 108% (inactive)

Lab book: growth of NCCNc1nc2ccccc2c2c(=O)c3cc(F)cc(Cl)c3sc12 noted as 59.9% (inactive)

Lab book: growth of O=C(c1ccccc1)N(C(=S)NCCc1ccc(Cl)cc1)c1ccc(Cl)cc1 noted as 62.5% (inactive)

Lab book: growth of COc1cc(C(C)n2cc(-c3ccccc3)nn2)ccc1OC1CCCC1 (stereo not given) noted as 94% (inactive)

Lab book: growth of O=C(Nc1ccc(I)cc1F)c1cc(Br)ccc1O noted as -3.47% (active)

Lab book: growth of O=S1(=O)N(Cc2ccccc2)[C@@H](Cc2ccccc2)[C@H](O)[C@H](O)[C@H](Cc2ccccc2)N1Cc1ccccc1 noted as 19.7% (inactive)

Lab book: growth of COC(=O)/C(=C\c1c(C)[nH]c2ccccc12)S(=O)(=O)c1ccccc1 noted as -29.7% (active)

Lab book: growth of O=C(CN1C=NC2C(N3CCOCC3)=NC=NC21)c1cccc2ccccc12 (stereo not given) noted as 102% (inactive)

---

Exercise: for every item that follows, state its recorded growth.
System: MALME-3M melanoma
protocol.details: NCI-60 one-dose screen, 48 h (100 = growth as untreated, 0 = no growth, -100 = all killed)
condition.info: 10 µM unless noted
About 83,000 compounds went through this panel and 20% of them were active in at least one assay; those are over-represented in the sample as a whole.
Kindly provide the numeric value in % only, without the unit symbol.

Lab book: growth of CCOC(=O)c1cc2c(n1Cc1ccccc1)-c1oncc1CCC2 noted as 39.2

Lab book: growth of Cc1cccc2c(=O)c3c(sc12)c(N1CCNCC1)nc1ccccc13 noted as 98.6

Lab book: growth of COc1ccc(Cn2c(Br)c3c(c2-c2cc(OC)c(OC)c(OC)c2)CCc2sc(NC(C)=O)nc2-3)cc1 noted as -6.05

Lab book: growth of O=C(CN1C=NC2C(N3CCOCC3)=NC=NC21)c1cccc2ccccc12 (stereo not given) noted as 114

Lab book: growth of COc1cc2nc(NC3CCC3)nc(NC3CCN(C(C)C)CC3)c2cc1OC noted as -4.44

Lab book: growth of COc1cccc(C(=O)Cn2cc(/C=C(\C#N)S(=O)(=O)c3ccccc3)c3ccccc32)c1 noted as 108

Lab book: growth of O=c1[nH]nnc2c1ncn2C1OC(CO)C(O)C1O (stereo not given) noted as 57.5

Lab book: growth of O=C(Nc1ccc(Cl)cc1F)c1cc(Br)ccc1O noted as -16.9

Lab book: growth of O=C(Nc1ccc(Cl)cc1)c1cc2ccccc2cc1OP(=O)(O)O noted as -16.3

Lab book: growth of O=S(=O)(c1ccccc1)n1cc2c(c1-c1ccccc1)CCc1sc(Nc3ccccc3)nc1-2 noted as 105

---

System: SK-OV-3 ovarian
protocol.details: NCI-60 one-dose screen, 48 h (100 = growth as untreated, 0 = no growth, -100 = all killed)
condition.info: 10 µM unless noted
About 83,000 compounds went through this panel and 20% of them were active in at least one assay; those are over-represented in the sample as a whole.
# binarize growth: threshold 90% inclusive, high side rule met, low side rule not met

Q: Evaluate COc1ccc(-c2nsc3c2NC(=O)CC3c2ccc3c(c2)OCCO3)cc1 (configuration not stated) : growth at minimum 90%?
Result: rule not met

Q: Evaluate O=C(NCCCN1CCC(N2CCCCC2)CC1)C1=Cc2cc(Br)ccc2OC1 : growth at minimum 90%?
Result: rule not met

Q: Evaluate CCn1c(-c2nonc2Nc2ccc(OC)cc2)nc2ccccc21 : growth at minimum 90%?
Result: rule met

Q: Evaluate CCOc1cc2c(cc1OCC)C(c1cc(C)c(O)c(C)c1)NCC2 (configuration not stated) : growth at minimum 90%?
Result: rule met

Q: Evaluate CCOC(=O)c1cc2c(n1Cc1cc(OC)cc(OC)c1)-c1oncc1CCC2 : growth at minimum 90%?
Result: rule not met

Q: Evaluate COc1ccc(C2Nc3ncnc(N)c3N=C3c4ccccc4C(=O)C32)cc1 (configuration not stated) : growth at minimum 90%?
Result: rule not met

Q: Evaluate COc1ccccc1C(=O)O/N=C(\N)Cc1cccc2ccccc12 : growth at minimum 90%?
Result: rule met

Q: Evaluate Cc1nc(Nc2cn[nH]c2C(=O)Nc2ccc(CN3CCN(C)CC3)cc2)c2ccsc2n1 : growth at minimum 90%?
Result: rule not met

Q: Evaluate CC(=O)O[C@@H]1/C=C/C(=O)N[C@@H](C)CCC/C=C/[C@@H]2CCC[C@H]21 : growth at minimum 90%?
Result: rule met

Q: Evaluate O=C(Cc1ccccc1)NC(c1ccc(Cl)cc1)c1c(O)ccc2ccccc12 (configuration not stated) : growth at minimum 90%?
Result: rule not met

Q: Evaluate COc1cccc(C(=O)Cn2cc(/C=C(\C#N)S(=O)(=O)c3ccccc3)c3ccccc32)c1 : growth at minimum 90%?
Result: rule not met

Q: Evaluate O=C(CSc1ncccc1C(=O)O)Nc1ccc(Oc2ccccc2)cc1 : growth at minimum 90%?
Result: rule met

Q: Evaluate Cc1nc(Nc2ccccn2)sc1C(=O)/C=C/c1ccc(Cl)cc1 : growth at minimum 90%?
Result: rule not met

Q: Evaluate O=c1oc2ccc(Cl)cc2c(=O)n1-c1ccc(I)cc1F : growth at minimum 90%?
Result: rule not met

Q: Evaluate COc1ccc(CSc2nnc(SCC(=O)Nc3ccc(Cl)cc3)s2)cc1 : growth at minimum 90%?
Result: rule met

Q: Evaluate Nc1nc(Nc2cccc(F)c2)nc2ccccc12 : growth at minimum 90%?
Result: rule not met

Q: Evaluate CCOC(=O)C(CC(=O)O)=C(C(=O)OCC)C(=O)OCC : growth at minimum 90%?
Result: rule met

Q: Evaluate Nc1ncnc(N)c1NC(=O)c1ccc(OCc2ccccc2)cc1 : growth at minimum 90%?
Result: rule met

Q: Evaluate COc1ccccc1N1C(=N)S/C(=C\c2ccc(OCc3ccccc3F)cc2)C1=O : growth at minimum 90%?
Result: rule met

---

Tested on: HS 578T breast
protocol.details: NCI-60 one-dose screen, 48 h
condition.info: 10 µM unless noted
The panel holds about 83,000 compounds, 20% with a hit somewhere; the sample as a whole holds those more often. Activity calls are given as the source filed them. Rule for the calls: active = growth percent below 10; inactive = the rest.
// one of 1 (yes) = active, 0 (no) = inactive, no free text

Q: Tell me the assay call for COc1ccc(C)c2sc(N(Cc3cccnc3)C(=O)c3ccc(C#N)cc3)nc12 please.
Result: 1 (yes)

Q: Tell me the assay call for O=C(/C=C/c1ccc(C(F)(F)F)cc1)c1ccc(Nc2nc(NCCO)nc(N3CCOCC3)n2)cc1 please.
Result: 0 (no)

Q: Tell me the assay call for Cc1ccc2sc3c(NCCCNCCO)nc4ccccc4c3c(=O)c2c1 please.
Result: 0 (no)

Q: Tell me the assay call for C1=CC2(C=C1)OC21CCC2(C=CC3(C2)OC3C2CCCCC2)CC1 (stereo not given) please.
Result: 0 (no)

Q: Tell me the assay call for CNCCNc1nc2ccccc2c2c(=O)c3cccc(C)c3sc12 please.
Result: 0 (no)

---

Test system: COLO 205 colon
protocol.details: NCI-60 one-dose screen, 48 h (100 = growth as untreated, 0 = no growth, -100 = all killed)
condition.info: 10 µM unless noted
This is part of a sample that, as a whole, favours compounds with a hit. Of some 83,000 tested, about 20% had one in any assay.
# binarize growth: threshold 90% inclusive, high side yes (1), low side no (0)

Q: Evaluate Cc1ccc2cccc(Oc3ccc(Nc4ncnc5onc(-c6ccccc6)c45)cc3)c2n1 : growth at minimum 90%?
Result: no (0)

Q: Evaluate Nc1cccc(Nc2cc(S(=O)(=O)O)c(N)c3c2C(=O)c2ccccc2C3=O)c1 : growth at minimum 90%?
Result: yes (1)

Q: Evaluate Cc1ccc(F)cc1NC(=O)c1cc(Cl)ccc1Nc1ccccc1 : growth at minimum 90%?
Result: no (0)

Q: Evaluate O=C(O)CCC(=O)c1ccc(C2CCCCCC2)cc1 : growth at minimum 90%?
Result: yes (1)

Q: Evaluate CCN(CCO)CCNc1ccc(C)c2sc3cc(Cl)ccc3c(=O)c12 : growth at minimum 90%?
Result: no (0)

Q: Evaluate COc1ccc(-c2nocc2-c2cccs2)cc1 : growth at minimum 90%?
Result: yes (1)

Q: Evaluate Brc1ccc(Nc2nc3ccccc3nc2Nc2ccc(Br)cc2)cc1 : growth at minimum 90%?
Result: no (0)

Q: Evaluate Cc1ccc2nc(NC(=O)CSC(=S)N3CCN(c4ccccc4)CC3)sc2c1 : growth at minimum 90%?
Result: yes (1)

Q: Evaluate COc1ccc(Cn2c(Br)c3c(c2-c2cc(OC)c(OC)c(OC)c2)CCc2sc(NC(=O)c4ccc(OC)cc4)nc2-3)cc1 : growth at minimum 90%?
Result: yes (1)

Q: Evaluate COc1ccc(-c2cn[nH]c2-c2cc(OC)c(OC)c(OC)c2)cc1OCc1ccccc1 : growth at minimum 90%?
Result: yes (1)

Q: Evaluate COc1ccc(S(=O)(=O)N(Cc2ccc3c(n2)C=CC(C)(C)O3)C2CCC2)cc1OC : growth at minimum 90%?
Result: no (0)

Q: Evaluate O=NN(Cc1cccnc1)C(=O)NC1CCCCC1 : growth at minimum 90%?
Result: yes (1)

Q: Evaluate CCOC(=O)c1cnc2ccc(Cl)cc2c1NCCCN(C)C : growth at minimum 90%?
Result: no (0)

Q: Evaluate Nc1ncnc(N)c1NC(=O)c1ccc(OCc2ccccc2)cc1 : growth at minimum 90%?
Result: yes (1)

Q: Evaluate CCOC(=O)C(CC(=O)O)=C(C(=O)OCC)C(=O)OCC : growth at minimum 90%?
Result: yes (1)

Q: Evaluate CCOC(=O)c1c2c(n3cccc(Cl)c13)C(=O)c1ncccc1C2=O : growth at minimum 90%?
Result: no (0)

Q: Evaluate COc1ccc(CCN2C(=O)CCSC2=S)cc1 : growth at minimum 90%?
Result: no (0)

Q: Evaluate CSc1nc2c(c(=O)n1C)N=C1c3ccccc3C(=O)C1C(c1ccccc1)N2 (stereo not given) : growth at minimum 90%?
Result: no (0)

Q: Evaluate O=C(CCc1nnc2sc(Cc3ccccc3Cl)nn12)c1nc2ncccc2[nH]1 : growth at minimum 90%?
Result: yes (1)

Q: Evaluate CCN1C(=O)N(c2ccccc2)C2Nn3c(s/c(=C4\C(=O)N(C(C)C)c5ccccc54)c3=O)=NC21 (stereo not given) : growth at minimum 90%?
Result: yes (1)

Q: Evaluate O=c1c(-c2nc3ccccc3[nH]2)cc2ccccc2n1Cc1cn(Cc2ccccc2Cl)nn1 : growth at minimum 90%?
Result: no (0)

Q: Evaluate COc1cc2nc(-c3cnc(N(C)C)nc3)nc(NC3CCN(Cc4ccccc4)CC3)c2cc1OC : growth at minimum 90%?
Result: no (0)

Q: Evaluate COC(=O)/C(CCC=C(C)C)=C1\[C@@H](OC(C)=O)C[C@@]2(C)[C@H]1C[C@@H](O)[C@H]1[C@@]3(C)CC[C@H](NC(=O)c4cnccn4)[C@@H](C)[C@@H]3CC[C@@]12C : growth at minimum 90%?
Result: yes (1)

Q: Evaluate CN1CCN(c2nc(Nc3ccc(O)cc3)nc3ccccc23)CC1 : growth at minimum 90%?
Result: no (0)

Q: Evaluate COC(=O)[C@@H]1CCCN1C(=O)[C@H]1CCCN1C(=O)[C@@H](Cc1c[nH]c2ccccc12)NC(=S)Nc1cc(C(F)(F)F)cc(C(F)(F)F)c1 : growth at minimum 90%?
Result: no (0)

Q: Evaluate COc1ccc(/C=C2\NC(=O)NC2=O)cc1O : growth at minimum 90%?
Result: yes (1)

Q: Evaluate COc1cc(C(=O)O/N=C(\N)Cc2cccc3ccccc23)cc(OC)c1OC : growth at minimum 90%?
Result: no (0)

Q: Evaluate O=C(NC1CCN(Cc2ccccc2)CC1)c1cc(C(=O)NC2CCN(Cc3ccccc3)CC2)cc(C(=O)NC2CCN(Cc3ccccc3)CC2)c1 : growth at minimum 90%?
Result: yes (1)

Q: Evaluate O=C(NCCCN1CCC(N2CCCCC2)CC1)C1=Cc2cc(Br)ccc2OC1 : growth at minimum 90%?
Result: no (0)

Q: Evaluate CCCCC(O)(c1ccc(Cl)cc1)C(CN1CCOCC1)c1ccc(Cl)cc1 (stereo not given) : growth at minimum 90%?
Result: yes (1)

Q: Evaluate CCN1CCN(c2cc(C)c3cc(NC(=O)c4ccc(OC)c(OC)c4)ccc3n2)CC1 : growth at minimum 90%?
Result: no (0)

Q: Evaluate O=C(c1nc2ccccc2[nH]1)C1[C@@H](c2cccc(O)c2)C2CC3CCCCC3N2[C@@]12C(=O)Nc1cc(Cl)ccc12 (stereo not given in full) : growth at minimum 90%?
Result: no (0)

Q: Evaluate CC1=C(C(=O)OCC2CCN(C(=O)OC(C)(C)C)CC2)[C@@H](c2cccc(C#N)c2)C2=C(CC(C)(C)CC2=O)N1 : growth at minimum 90%?
Result: no (0)

Q: Evaluate COc1ccc(CCN2CCC(CN(C)Cc3cnn(-c4ccccc4)c3)CC2)cc1 : growth at minimum 90%?
Result: no (0)

Q: Evaluate O=c1c2cc(F)cc(Cl)c2sc2c(Cl)nc3ccccc3c12 : growth at minimum 90%?
Result: yes (1)

Q: Evaluate COc1ccc(CN2CCCC(C(=O)c3ccc(C(F)(F)F)cc3)C2)c(O)c1 (stereo not given) : growth at minimum 90%?
Result: no (0)

Q: Evaluate CN=c1ccc2nc3ccc(N)cc3sc-2c1 : growth at minimum 90%?
Result: no (0)

Q: Evaluate COc1ccc(C2C3=C(COC3=O)N(CCO)c3cc4c(cc32)OCCO4)cc1 (stereo not given) : growth at minimum 90%?
Result: no (0)

Q: Evaluate CCCCOCc1cc(CN2CCN(C)CC2)c(O)c2ncccc12 : growth at minimum 90%?
Result: no (0)
